tgt: CRBN and Helios (IKZF2) (Homo sapiens, UniProt Q96SW2+Q9UKS7)
Construct: His (N); Strep (N)
Sequence (Q96SW2 whole entry): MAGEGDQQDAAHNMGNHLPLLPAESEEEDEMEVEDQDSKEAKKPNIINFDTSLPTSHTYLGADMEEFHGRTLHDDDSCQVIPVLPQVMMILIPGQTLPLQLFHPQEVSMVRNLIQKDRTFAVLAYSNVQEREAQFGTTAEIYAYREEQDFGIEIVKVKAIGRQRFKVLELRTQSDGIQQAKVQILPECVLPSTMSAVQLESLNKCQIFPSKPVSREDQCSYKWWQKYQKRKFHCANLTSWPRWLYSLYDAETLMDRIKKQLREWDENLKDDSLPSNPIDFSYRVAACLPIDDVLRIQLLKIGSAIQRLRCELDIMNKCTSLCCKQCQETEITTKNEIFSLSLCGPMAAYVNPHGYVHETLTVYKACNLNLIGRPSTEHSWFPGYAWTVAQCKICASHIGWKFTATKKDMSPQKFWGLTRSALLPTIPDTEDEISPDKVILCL
Sequence (Q9UKS7 whole entry): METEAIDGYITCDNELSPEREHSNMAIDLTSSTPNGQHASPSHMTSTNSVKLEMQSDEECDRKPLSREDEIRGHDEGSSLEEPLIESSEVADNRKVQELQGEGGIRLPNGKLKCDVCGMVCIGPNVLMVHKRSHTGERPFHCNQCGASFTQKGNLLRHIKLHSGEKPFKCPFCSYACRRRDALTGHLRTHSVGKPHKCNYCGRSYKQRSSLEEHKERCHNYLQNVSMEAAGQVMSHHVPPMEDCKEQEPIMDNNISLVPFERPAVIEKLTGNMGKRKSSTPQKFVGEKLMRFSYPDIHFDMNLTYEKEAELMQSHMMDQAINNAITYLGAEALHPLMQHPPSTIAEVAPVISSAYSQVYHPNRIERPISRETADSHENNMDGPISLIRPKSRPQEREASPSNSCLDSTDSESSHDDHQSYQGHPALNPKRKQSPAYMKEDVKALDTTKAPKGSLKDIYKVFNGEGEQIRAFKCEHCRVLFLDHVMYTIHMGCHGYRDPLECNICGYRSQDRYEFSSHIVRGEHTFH
procedure.text: TR-FRET dimerization assay (CRBN-IKZF2 ternary complex formation)
Format: binding
measurement.context: compound concentration 6.6667E−06; n=1
property.name: TR-FRET-IKZF2 (Normalized to CC-885)

1) Cc1ccc(CNC(=O)c2cccc(NC3=CC(=O)N(C4CCC(=O)NC4=O)C3=O)c2)cc1Cl (stereo not shown) [Compound 122]
0.628
2) O=C1CCC(N2C(=O)C=C(Nc3ccc4cn[nH]c4c3)C2=O)C(=O)N1 (stereo not shown) [Compound 32]
0.213
3) CN(C)C(=O)c1ccc(NC2=CC(=O)N(C3CCC(=O)NC3=O)C2=O)cc1 (stereo not shown) [Compound 34]
0.064
4) COC(=O)CCNC1=CC(=O)N(C2CCC(=O)NC2=O)C1=O (stereo not shown) [Compound 14]
0.040
